All figures here come from ChEMBL document CHEMBL3988442.

SYSTEM UNDER TEST: AMP-activated protein kinase, AMPK (Homo sapiens) (UniProt P54646+O43741+P54619+Q9UGJ0+Q9Y478+Q13131+Q9UGI9)
ASSAY OVERVIEW: AMP-dependent Kinase enzyme assay. An in vitro enzyme assay that detects ADP turnover that is directly proportional to AMPK activity. This uses naive AMPK that is activated during the assay with MK-8722
Type: functional
Parameters: scale not given: direction of the effect not stated beside the values
RUN PARAMETERS: 30 µM
OBSERVABLE: Percent Effect (%)
Numeric only. Scale: %

Data request, read-out Percent Effect, for Cc1ccc(N2CCCC(N(C)c3nn4cc(C)nc4s3)C2)nn1 (centres undefined)
33

Data request, read-out Percent Effect, for CCNC(=O)C1CCN(Cc2ccccc2OCC(F)(F)F)CC1
-3.27

Data request, read-out Percent Effect, for CCCc1nnc(N2CCN(C3CCCC3)CC2)o1
3.52

Data request, read-out Percent Effect, for Cn1cc(NC(=O)N2CCCC2c2ccccn2)ccc1=O (centres undefined)
40.9

Data request, read-out Percent Effect, for Cc1nnsc1CN1CC[C@@](O)(C2CCC2)[C@H](C)C1
-5.82

Data request, read-out Percent Effect, for CCC(NC(=O)C(C)C)c1ccccc1C (centres undefined)
8.49

Data request, read-out Percent Effect, for Cn1cc(Cl)c(CN(Cc2ccsc2)CC2CCCO2)n1 (centres undefined)
2.65

Data request, read-out Percent Effect, for CC(C)c1nc(CSc2nnc(-c3cccs3)n2CC(N)=O)no1
-6.28

Data request, read-out Percent Effect, for Cc1cc(CNS(C)(=O)=O)ccc1N(C)C
1.62

Data request, read-out Percent Effect, for CN1CCN(c2ccc(F)cc2NC(=O)NCCn2ccnc2)CC1
12.1

Data request, read-out Percent Effect, for CCc1nc(C)c(CC(=O)N2CCC3(CC2)OCCCC3OC)c(=O)[nH]1 (centres undefined)
-123

Data request, read-out Percent Effect, for O=C(O)[C@H]1C[C@@H](C(=O)NCc2ccncc2)CN(Cc2ccccc2)C1
-3

Data request, read-out Percent Effect, for CCc1ncc2c(n1)CN(c1cc(N3CCN(C)CC3)nc(N)n1)C2
-137

Data request, read-out Percent Effect, for N#Cc1cccnc1NCCc1cc(F)cc2c1OCOC2
22.2

Data request, read-out Percent Effect, for Cc1c(C(=O)NC2CCCOC2)nnn1-c1ccc(Cl)cc1F (centres undefined)
0.0565

Data request, read-out Percent Effect, for CC(NC(=O)c1ccc(C(N)=O)cc1)c1cccc(N2CCOC2=O)c1 (centres undefined)
4.89

Data request, read-out Percent Effect, for COC(=O)Cn1c(C)cc(=O)c2cc(F)ccc21
1.38

Data request, read-out Percent Effect, for CN1CCCC(CCC(=O)NCCc2nnc(N)s2)C1 (centres undefined)
-1.67

Data request, read-out Percent Effect, for Cc1ccccc1[C@@H]1CN(Cc2ccc(C(F)(F)F)nc2)C[C@H]1C(=O)O
-5.65

Data request, read-out Percent Effect, for COc1ccccc1C(=O)N1CCN(C(=O)CCCc2cn[nH]c2)CC1
-2.48

Data request, read-out Percent Effect, for O=C(c1ccc2[nH]cnc2c1)N1CCC(COc2ccccn2)CC1
-1.03

Data request, read-out Percent Effect, for CC1CN(C)CCN1C(=O)c1cccn1Cc1cccnc1 (centres undefined)
-3.9

Data request, read-out Percent Effect, for CCSc1cc(C(=O)N(Cc2cnn(C)c2)C(C)C)ccn1
1.44

Data request, read-out Percent Effect, for O=C1NCCN2CCN(Cc3ccc(Cl)c(Cl)c3)CC12 (centres undefined)
-0.338
